test: Apparent permeability from basolateral to apical side in human Caco2 cells at 10 uM after 60 mins by LC-MS/MS analysis; details: Caco-2
Kindly apply the following: 1 (yes) if Papp B→A at 1 h, 10 µM is less than 10 ×10⁻⁶ cm/s, 0 (no) in every other case.

Study these solved cases before continuing.
entry_smiles | label_class
N#Cc1ccccc1Cn1c(N2CCC[C@@H](N)C2)nc2[nH]c(-c3cccnc3)cc2c1=O | 1 (yes)
N#Cc1ccccc1Cn1c(N2CCC[C@@H](N)C2)nc2[nH]c(Br)cc2c1=O | 0 (no)
Cn1c(Br)c(Br)c2c(=O)n(Cc3ccccc3C#N)c(N3CCC[C@@H](N)C3)nc21 | 1 (yes)

Qu. Please determine if `Cn1ccc2c(=O)n(Cc3ccccc3C#N)c(N3CCC[C@@H](N)C3)nc21` is below 10 ×10⁻⁶ cm/s in terms of Papp B→A at 1 h, 10 µM.
Ans. 0 (no)

Qu. Entry `N#Cc1ccccc1Cn1c(N2CCC[C@@H](N)C2)nc2cc[nH]c2c1=O` please
Ans. 0 (no)

* * *

Below is a list of entries, each paired with its recorded efflux ratio at 1 h, 10 µM value.
assay: Efflux ratio of apparent permeability from apical to basolateral side to basolateral to apical side in human Caco2 cells at 10 uM after 60 mins by LC-MS/MS analysis; settings: Caco-2
// no unit, no text: just the number

entry_smiles | result_number
Cn1c(Br)c(Br)c2c(=O)n(Cc3ccccc3C#N)c(N3CCC[C@@H](N)C3)nc21 | 3.37

Now look at this entry.
Qu. Fill blank: measured efflux ratio at 1 h, 10 µM of the compound `N#Cc1ccccc1Cn1c(N2CCC[C@@H](N)C2)nc2c(-c3ccncc3)c[nH]c2c1=O` is ____.
Ans. 2.51

* * *

target: UniProt Q12809
Sequence (Q12809 whole entry): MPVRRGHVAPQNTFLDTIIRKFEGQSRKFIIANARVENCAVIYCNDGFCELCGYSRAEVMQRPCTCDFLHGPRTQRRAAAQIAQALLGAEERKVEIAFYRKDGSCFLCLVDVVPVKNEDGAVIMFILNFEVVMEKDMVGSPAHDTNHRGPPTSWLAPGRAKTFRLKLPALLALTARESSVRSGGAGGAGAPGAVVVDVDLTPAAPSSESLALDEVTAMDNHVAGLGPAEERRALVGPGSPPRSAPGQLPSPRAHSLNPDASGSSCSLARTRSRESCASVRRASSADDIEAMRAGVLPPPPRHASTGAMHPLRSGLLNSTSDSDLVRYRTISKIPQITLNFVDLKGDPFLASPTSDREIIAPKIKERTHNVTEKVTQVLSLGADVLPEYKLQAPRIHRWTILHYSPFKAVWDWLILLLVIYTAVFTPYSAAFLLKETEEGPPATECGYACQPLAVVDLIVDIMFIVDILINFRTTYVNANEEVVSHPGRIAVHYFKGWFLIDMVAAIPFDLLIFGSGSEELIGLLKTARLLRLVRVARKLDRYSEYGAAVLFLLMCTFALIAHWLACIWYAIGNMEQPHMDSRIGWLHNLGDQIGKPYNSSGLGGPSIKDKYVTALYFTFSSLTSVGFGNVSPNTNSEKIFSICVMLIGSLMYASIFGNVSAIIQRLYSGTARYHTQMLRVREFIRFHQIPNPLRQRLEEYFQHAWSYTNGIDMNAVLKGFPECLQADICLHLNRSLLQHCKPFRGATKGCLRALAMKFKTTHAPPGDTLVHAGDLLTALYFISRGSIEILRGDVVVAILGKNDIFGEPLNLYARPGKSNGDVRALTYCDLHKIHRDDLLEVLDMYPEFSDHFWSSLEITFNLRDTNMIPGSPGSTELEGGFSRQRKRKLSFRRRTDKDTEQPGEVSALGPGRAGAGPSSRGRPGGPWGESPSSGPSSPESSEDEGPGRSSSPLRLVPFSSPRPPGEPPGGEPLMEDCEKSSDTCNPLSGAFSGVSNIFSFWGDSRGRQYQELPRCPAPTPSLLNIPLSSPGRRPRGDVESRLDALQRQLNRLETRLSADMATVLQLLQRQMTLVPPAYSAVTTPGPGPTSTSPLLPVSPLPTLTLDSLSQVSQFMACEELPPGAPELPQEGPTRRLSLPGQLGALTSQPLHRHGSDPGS
pIC50: −log10 of the molar value.
recorded_metric: pIC50

Qu. Fill blank: measured pIC50 of the molecule `N#Cc1ccccc1Cn1c(N2CCC[C@@H](N)C2)nc2c(Br)c[nH]c2c1=O` is ____.
Ans. < 3.52

* * *

Below is a list of entries, each paired with its recorded IC50 value.
biological target: Dipeptidyl peptidase 4 (Homo sapiens)
Sequence (P27487 whole entry): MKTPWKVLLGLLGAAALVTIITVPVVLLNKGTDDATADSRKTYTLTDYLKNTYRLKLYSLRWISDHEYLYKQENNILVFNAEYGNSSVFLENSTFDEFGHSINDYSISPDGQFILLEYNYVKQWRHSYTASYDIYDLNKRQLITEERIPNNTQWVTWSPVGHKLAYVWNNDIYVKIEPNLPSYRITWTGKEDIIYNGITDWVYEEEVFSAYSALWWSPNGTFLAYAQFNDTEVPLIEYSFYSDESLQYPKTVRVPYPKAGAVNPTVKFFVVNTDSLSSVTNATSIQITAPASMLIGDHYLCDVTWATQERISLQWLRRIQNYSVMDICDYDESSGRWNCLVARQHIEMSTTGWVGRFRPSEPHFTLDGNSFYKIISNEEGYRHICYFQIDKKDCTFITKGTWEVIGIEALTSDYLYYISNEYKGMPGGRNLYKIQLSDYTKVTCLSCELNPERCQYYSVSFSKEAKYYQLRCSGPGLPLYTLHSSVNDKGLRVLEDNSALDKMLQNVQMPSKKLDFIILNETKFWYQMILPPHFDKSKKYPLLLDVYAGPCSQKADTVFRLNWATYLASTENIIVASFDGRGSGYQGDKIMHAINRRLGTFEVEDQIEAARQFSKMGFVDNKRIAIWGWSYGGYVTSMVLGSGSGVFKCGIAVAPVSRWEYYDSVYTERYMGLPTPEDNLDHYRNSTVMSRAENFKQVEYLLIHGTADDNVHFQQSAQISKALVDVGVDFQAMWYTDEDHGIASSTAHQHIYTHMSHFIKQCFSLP
// note: answer is a bare numeric in nM

Examples with their reported IC50 follow.
entry_smiles | unit | result_number
N#Cc1ccccc1Cn1c(N2CCC[C@@H](N)C2)nc2[nH]c(Br)cc2c1=O | nM | 2.64
N#Cc1ccccc1Cn1c(N2CCC[C@@H](N)C2)nc2[nH]c(-c3cccnc3)cc2c1=O | nM | 2.34

Now look at this entry.
Qu. Identify the measured IC50 of `Cc1cc2c(=O)n(Cc3ccccc3C#N)c(N3CCC[C@@H](N)C3)nc2[nH]1` for Dipeptidyl peptidase 4 (Homo sapiens).
Ans. 13.8

* * *

test: Apparent permeability from basolateral to apical side in human Caco2 cells at 10 uM after 60 mins by LC-MS/MS analysis; settings: Caco-2
recorded_metric: Papp B→A at 1 h, 10 µM (×10⁻⁶ cm/s)
// note: answer is a bare numeric in ×10⁻⁶ cm/s

entry_smiles | Papp B→A at 1 h, 10 µM [×10⁻⁶ cm/s]
N#Cc1ccccc1Cn1c(N2CCC[C@@H](N)C2)nc2c(-c3ccsc3)c[nH]c2c1=O | 21.2
N#Cc1ccccc1Cn1c(N2CCC[C@@H](N)C2)nc2c(-c3ccncc3)c[nH]c2c1=O | 10.3
Cc1cc2c(=O)n(Cc3ccccc3C#N)c(N3CCC[C@@H](N)C3)nc2[nH]1 | 9.36
N#Cc1ccccc1Cn1c(N2CCC[C@@H](N)C2)nc2c(Br)c[nH]c2c1=O | 18.4
N#Cc1ccccc1Cn1c(N2CCC[C@@H](N)C2)nc2c(-c3cccnc3)c[nH]c2c1=O | 11.3

Now look at this entry.
Qu. Fill blank: measured Papp B→A at 1 h, 10 µM of the compound `N#Cc1ccccc1Cn1c(N2CCC[C@@H](N)C2)nc2[nH]c(-c3ccc(F)cc3)cc2c1=O` is ____.
Ans. 26.6

* * *

assay: Oral bioavailability in Sprague-Dawley rat at 20 to 25 mg/kg administered as single dose; format: ADME, organism-based; settings: in vivo
Below is a list of entries, each paired with its recorded bioavailability value.
// note: answer is a bare numeric in %

Examples with their reported bioavailability follow.
entry_smiles | unit | result_number
N#Cc1ccccc1Cn1c(N2CCC[C@@H](N)C2)nc2ccsc2c1=O | % | 23.3
N#Cc1ccccc1Cn1c(N2CCC[C@@H](N)C2)nc2c(Br)c[nH]c2c1=O | % | 41

Now look at this entry.
Qu. Fill blank: measured bioavailability of the compound `N#Cc1ccccc1Cn1c(N2CCC[C@@H](N)C2)nc2[nH]ccc2c1=O` is ____.
Ans. 5.7

* * *

Below is a list of entries, each paired with its recorded remaining at 0.5 h, 1 µM value.
assay: Metabolic stability in rat liver microsomes assessed as compound remaining at 1 uM after 30 mins by LC-MS/MS; format: ADME, Microsome; conditions: read-out: Stability
// note: answer is a bare numeric in %

Examples with their reported remaining at 0.5 h, 1 µM follow.
entry_smiles | recorded_metric | result_number
N#Cc1ccccc1Cn1c(N2CCC[C@@H](N)C2)nc2[nH]ccc2c1=O | remaining at 0.5 h, 1 µM | 65.1
N#Cc1ccccc1Cn1c(N2CCC[C@@H](N)C2)nc2c(-c3ccncc3)c[nH]c2c1=O | remaining at 0.5 h, 1 µM | 28.1

Now look at this entry.
Qu. Fill blank: measured remaining at 0.5 h, 1 µM of the compound `Cn1c(Br)c(Br)c2c(=O)n(Cc3ccccc3C#N)c(N3CCC[C@@H](N)C3)nc21` is ____.
Ans. 41

* * *

assay: Metabolic stability in rat liver microsomes assessed as compound turnover at 1 uM after 30 mins by LC-MS/MS; format: ADME, Microsome; conditions: read-out: Drug metabolism
recorded_metric: metabolised at 0.5 h, 1 µM (%)
// note: answer is a bare numeric in %

Qu. Fill blank: measured metabolised at 0.5 h, 1 µM of the compound `N#Cc1ccccc1Cn1c(N2CCC[C@@H](N)C2)nc2ccsc2c1=O` is ____.
Ans. 93

* * *

experiment: Apparent permeability from apical to basolateral side in human Caco2 cells at 10 uM after 60 mins by LC-MS/MS analysis; conditions: Caco-2
Below is a list of entries, each paired with its recorded Papp A→B at 1 h, 10 µM value.
// note: answer is a bare numeric in ×10⁻⁶ cm/s

Qu. Fill blank: measured Papp A→B at 1 h, 10 µM of the compound `N#Cc1ccccc1Cn1c(N2CCC[C@@H](N)C2)nc2[nH]c(-c3cccnc3)cc2c1=O` is ____.
Ans. 2.55

Qu. Entry `N#Cc1ccccc1Cn1c(N2CCC[C@@H](N)C2)nc2[nH]c(Br)cc2c1=O` please
Ans. 5.48

Qu. Entry `Cn1c(Br)c(Br)c2c(=O)n(Cc3ccccc3C#N)c(N3CCC[C@@H](N)C3)nc21` please
Ans. 2.5

Qu. Entry `Cc1cc2c(=O)n(Cc3ccccc3C#N)c(N3CCC[C@@H](N)C3)nc2[nH]1` please
Ans. 4.36

Qu. Entry `Cn1ccc2c(=O)n(Cc3ccccc3C#N)c(N3CCC[C@@H](N)C3)nc21` please
Ans. 1.84

Qu. Entry `N#Cc1ccccc1Cn1c(N2CCC[C@@H](N)C2)nc2c(-c3ccncc3)c[nH]c2c1=O` please
Ans. 4.13

Qu. Entry `N#Cc1ccccc1Cn1c(N2CCC[C@@H](N)C2)nc2c(Br)c[nH]c2c1=O` please
Ans. 2.81

Qu. Entry `N#Cc1ccccc1Cn1c(N2CCC[C@@H](N)C2)nc2c(-c3cccnc3)c[nH]c2c1=O` please
Ans. 0.3

Qu. Entry `N#Cc1ccccc1Cn1c(N2CCC[C@@H](N)C2)nc2c(-c3ccsc3)c[nH]c2c1=O` please
Ans. 1.86

Qu. Entry `N#Cc1ccccc1Cn1c(N2CCC[C@@H](N)C2)nc2cc[nH]c2c1=O` please
Ans. 3.44

Qu. Entry `N#Cc1ccccc1Cn1c(N2CCC[C@@H](N)C2)nc2[nH]c(-c3ccc(F)cc3)cc2c1=O` please
Ans. 0.59

* * *

test: Metabolic stability in rat liver microsomes assessed as compound remaining at 1 uM after 30 mins by LC-MS/MS; format: ADME, Microsome; settings: read-out: Stability
Below is a list of entries, each paired with its recorded remaining at 0.5 h, 1 µM value.
// note: answer is a bare numeric in %

Examples with their reported remaining at 0.5 h, 1 µM follow.
entry_smiles | remaining at 0.5 h, 1 µM, %
N#Cc1ccccc1Cn1c(N2CCC[C@@H](N)C2)nc2[nH]c(Br)cc2c1=O | 71.9
Cc1csc2nc(N3CCC[C@@H](N)C3)n(Cc3ccccc3C#N)c(=O)c12 | 3.27
Cc1cc2c(=O)n(Cc3ccccc3C#N)c(N3CCC[C@@H](N)C3)nc2[nH]1 | 91.4
N#Cc1ccccc1Cn1c(N2CCC[C@@H](N)C2)nc2cc[nH]c2c1=O | 39.2

Qu. Fill blank: measured remaining at 0.5 h, 1 µM of the compound `N#Cc1ccccc1Cn1c(N2CCC[C@@H](N)C2)nc2ccsc2c1=O` is ____.
Ans. 6.6

Qu. Entry `N#Cc1ccccc1Cn1c(N2CCC[C@@H](N)C2)nc2c(Br)c[nH]c2c1=O` please
Ans. 78

Qu. Entry `N#Cc1ccccc1Cn1c(N2CCC[C@@H](N)C2)nc2[nH]c(-c3cccnc3)cc2c1=O` please
Ans. 73.8

Qu. Entry `Cc1csc2c(=O)n(Cc3ccccc3C#N)c(N3CCC[C@@H](N)C3)nc12` please
Ans. 0

Qu. Entry `N#Cc1ccccc1Cn1c(N2CCC[C@@H](N)C2)nc2sccc2c1=O` please
Ans. 24.6

Qu. Entry `N#Cc1ccccc1Cn1c(N2CCC[C@@H](N)C2)nc2scc(C(F)(F)F)c2c1=O` please
Ans. 4.6
